B1: BCL2L13 (parent)
chain: MASSSTVPLGFHYETKYVVLSYLG

# Variants of: B1
# method notes: protein stability index of a GFP-peptide fusion (GPS, HEK-293T) (PSI 1-6); higher = more stable;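 note: lentivirally expressed fusions sorted by FACS into six bins by GFP to DsRed ratio, PSI derived from sequencing read proportions per bin multiplied by bin number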
# condition set: c terminus: a fixed tail appended

change: L9Y
protein stability index: 2.57

change: V19A
protein stability index: 1.99

change: Y17D
protein stability index: 1.73

change: H12M
protein stability index: 2.39

change: L20S
protein stability index: 1.69

change: P8Y
protein stability index: 3.53

change: F11Q
protein stability index: 2.85

change: E14F
protein stability index: 1.81

change: L20G
protein stability index: 1.74

change: S5H
protein stability index: 2.09

change: L9D
protein stability index: 2.32

change: L9F
protein stability index: 1.33

change: L23N
protein stability index: 2.18

change: S3A
protein stability index: 2.39

change: V18L
protein stability index: 1.88

change: L9T
protein stability index: 2.45

change: S21N
protein stability index: 2.4

change: L20Y
protein stability index: 2.88

change: Y13H
protein stability index: 2.27

change: S21C
protein stability index: 3.12

change: H12N
protein stability index: 2.12

change: G10N
protein stability index: 2.93
